test: Two-way permeability study in Caco-2 cells; format: in vitro ADME; settings: human, pH 7.4
recorded_endpoint: efflux ratio at 120 min
// response body must contain only the number

Specify reported efflux ratio at 120 min for the molecule shown: COc1ccc2c(c1OCc1ccccc1)C[C@@H](C(=O)O)N(C(=O)[C@@H](OC1CCCC1)c1ccccc1)C2 [Compound 37]
32.5

Specify reported efflux ratio at 120 min for the molecule shown: COc1ccc2c(c1OCc1ccccc1)C[C@@H](C(=O)O)N(C(=O)[C@@H](OC1(C)CCCC1)c1ccccc1)C2 [Compound 57]
26.3

Specify reported efflux ratio at 120 min for the molecule shown: O=C(O)[C@@H]1Cc2c(ccc(Cl)c2OCc2ccccc2)CN1C(=O)[C@@H](OC1CCCC1)c1ccccc1 [Compound 107]
13.1

====

biological target: CYP2C19 (Homo sapiens, UniProt P33261); construct: Mixed human liver microsomes (pooled HLM, n≥50) were purchased from Corning Inc; tissue Corning Inc. or other qualified suppliers; host or cells: pooled human liver microsomes (n≥50); test: Human liver microsome CYP inhibition experiment; type: in vitro ADME; conditions: pooled human liver microsomes; read-out: Cytochrome P450 isoenzyme IC50 2C19
Sequence (P33261 whole entry): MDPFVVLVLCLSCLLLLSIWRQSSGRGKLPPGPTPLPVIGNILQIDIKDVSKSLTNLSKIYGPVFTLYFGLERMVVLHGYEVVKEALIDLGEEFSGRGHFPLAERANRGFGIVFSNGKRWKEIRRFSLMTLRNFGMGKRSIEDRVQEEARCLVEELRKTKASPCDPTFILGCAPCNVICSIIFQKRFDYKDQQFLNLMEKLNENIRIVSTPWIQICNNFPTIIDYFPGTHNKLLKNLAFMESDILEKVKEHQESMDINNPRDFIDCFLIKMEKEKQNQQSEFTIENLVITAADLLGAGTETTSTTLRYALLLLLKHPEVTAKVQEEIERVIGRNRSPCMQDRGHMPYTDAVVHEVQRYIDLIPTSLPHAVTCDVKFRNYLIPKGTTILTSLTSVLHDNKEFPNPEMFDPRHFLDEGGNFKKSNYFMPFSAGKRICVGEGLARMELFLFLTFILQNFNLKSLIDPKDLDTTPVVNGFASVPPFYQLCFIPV
Kindly supply the reported IC50 values for the records listed here.

Specify reported IC50 for the compound shown: COc1ccc2c(c1OCc1ccccc1)C[C@@H](C(=O)O)N(C(=O)C(c1ccccc1)c1ccccc1)C2 [EMA-401, reference compound]
17.6 µM

Specify reported IC50 for the compound shown: COc1ccc2c(c1OCc1ccccc1)C[C@@H](C(=O)O)N(C(=O)[C@@H](O[C@H]1CC[C@@H](O)CC1)c1ccccc1)C2
> 50 µM

Specify reported IC50 for the compound shown: COc1ccc2c(c1OCc1ccccc1)C[C@@H](C(=O)O)N(C(=O)[C@@H](OC1CC(F)(F)C1)c1ccccc1)C2
> 50 µM

====

Target: UniProt P05177
Sequence (P05177 1-516): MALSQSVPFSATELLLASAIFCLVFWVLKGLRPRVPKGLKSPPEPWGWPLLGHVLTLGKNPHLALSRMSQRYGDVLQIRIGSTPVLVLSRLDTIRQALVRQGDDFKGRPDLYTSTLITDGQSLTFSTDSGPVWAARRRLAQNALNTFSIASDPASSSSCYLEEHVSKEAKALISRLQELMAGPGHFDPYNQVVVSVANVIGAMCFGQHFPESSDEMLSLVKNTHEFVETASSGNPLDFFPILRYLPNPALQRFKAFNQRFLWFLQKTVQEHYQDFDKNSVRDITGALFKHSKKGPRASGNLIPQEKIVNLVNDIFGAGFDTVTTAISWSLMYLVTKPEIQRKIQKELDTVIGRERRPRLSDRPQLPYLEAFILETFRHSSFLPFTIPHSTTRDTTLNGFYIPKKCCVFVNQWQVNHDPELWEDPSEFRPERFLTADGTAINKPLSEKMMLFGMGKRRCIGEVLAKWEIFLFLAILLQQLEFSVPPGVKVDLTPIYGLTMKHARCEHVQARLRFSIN
pIC50: −log10 of the molar value.
Kindly supply the reported pIC50 values for the records listed here.

Specify reported pIC50 for the molecule shown: COc1ccc2c(c1OCc1ccccc1)C[C@@H](C(=O)O)N(C(=O)[C@@H](O[C@H]1CC[C@@H](O)CC1)c1ccccc1)C2
< 4.30

Specify reported pIC50 for the molecule shown: O=C(O)[C@@H]1Cc2c(ccc(Cl)c2OCc2ccccc2)CN1C(=O)[C@@H](OC1CCCC1)c1ccccc1
< 4.30

Specify reported pIC50 for the molecule shown: COc1ccc2c(c1OCc1ccccc1)C[C@@H](C(=O)O)N(C(=O)C(c1ccccc1)c1ccccc1)C2 [EMA-401, reference compound]
4.89

Specify reported pIC50 for the molecule shown: COc1ccc2c(c1OCc1ccccc1)C[C@@H](C(=O)O)N(C(=O)[C@@H](OC1CC(F)(F)C1)c1ccccc1)C2
< 4.30

Specify reported pIC50 for the molecule shown: COc1ccc2c(c1OCc1ccccc1)C[C@@H](C(=O)O)N(C(=O)[C@@H](OC1CCCC1)c1ccccc1)C2
< 4.30

====

Molecular target: hAT2 (Homo sapiens)
Sequence (P50052 1-363): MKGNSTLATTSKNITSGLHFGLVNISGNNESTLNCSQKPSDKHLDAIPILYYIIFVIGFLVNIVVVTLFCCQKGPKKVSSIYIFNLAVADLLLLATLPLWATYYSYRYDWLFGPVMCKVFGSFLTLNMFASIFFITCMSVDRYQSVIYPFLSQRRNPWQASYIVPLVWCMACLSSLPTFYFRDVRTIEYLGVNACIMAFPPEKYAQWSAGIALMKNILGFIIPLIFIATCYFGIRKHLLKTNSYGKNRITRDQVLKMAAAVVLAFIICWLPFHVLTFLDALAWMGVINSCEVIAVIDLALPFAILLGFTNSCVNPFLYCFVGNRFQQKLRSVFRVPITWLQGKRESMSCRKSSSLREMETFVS
recorded_endpoint: IC50 (nM)
Answer with a number only, understood to be in nM.

Specify reported IC50 for the molecule shown: O=C(O)[C@@H]1Cc2c(cccc2OCc2ccccc2)CN1C(=O)[C@@H](OC1CC(F)(F)C1)c1ccccc1 [Compound 83]
3.2

Specify reported IC50 for the molecule shown: COc1ccc2c(c1OCc1ccccc1)C[C@@H](C(=O)O)N(C(=O)[C@H](Oc1ccccc1F)c1ccccc1)C2 [Compound 18]
54.1

Specify reported IC50 for the molecule shown: COc1ccc2c(c1OCc1ccccc1)C[C@@H](C(=O)O)N(C(=O)[C@H](Oc1ccc(Cl)cc1)c1ccccc1)C2 [Compound 34]
227

Specify reported IC50 for the molecule shown: COc1ccc2c(c1OCc1ccccc1)C[C@@H](C(=O)O)N(C(=O)[C@@H](O[C@H]1CC[C@H](O)CC1)c1ccccc1)C2 [Compound 65]
157

====

experiment: Determination of kinetic solubility; format: physicochemical; conditions: buffer solution pH 7.4, aqueous buffer, kinetic from dmso stock, pH 7.4, 24 hours at room temperature, theoretical maximum 200 μM
recorded_endpoint: solubility at 24 h (µM)
Answer with a number only, understood to be in µM.

Specify reported solubility at 24 h for the compound shown: COc1ccc2c(c1OCc1ccccc1)C[C@@H](C(=O)O)N(C(=O)C(c1ccccc1)c1ccccc1)C2 [EMA-401, reference compound]
192

Specify reported solubility at 24 h for the compound shown: COc1ccc2c(c1OCc1ccccc1)C[C@@H](C(=O)O)N(C(=O)[C@@H](O[C@H]1CC[C@@H](O)CC1)c1ccccc1)C2
190

Specify reported solubility at 24 h for the compound shown: COc1ccc2c(c1OCc1ccccc1)C[C@@H](C(=O)O)N(C(=O)[C@@H](OC1CC(F)(F)C1)c1ccccc1)C2
190

Specify reported solubility at 24 h for the compound shown: O=C(O)[C@@H]1Cc2c(ccc(Cl)c2OCc2ccccc2)CN1C(=O)[C@@H](OC1CCCC1)c1ccccc1
181

====

experiment: Two-way permeability study in Caco-2 cells; assay type: in vitro ADME; conditions: human, pH 7.4, A-B direction, 120 minutes
Kindly supply the reported Papp A→B at 120 min values for the records listed here.
Answer with a number only, understood to be in ×10⁻⁶ cm/s.

Specify reported Papp A→B at 120 min for the molecule shown: COc1ccc2c(c1OCc1ccccc1)C[C@@H](C(=O)O)N(C(=O)C(c1ccccc1)c1ccccc1)C2 [EMA-401, reference compound]
0.11

Specify reported Papp A→B at 120 min for the molecule shown: COc1ccc2c(c1OCc1ccccc1)C[C@@H](C(=O)O)N(C(=O)[C@@H](OC1CCCC1)c1ccccc1)C2 [Compound 37]
0.27

Specify reported Papp A→B at 120 min for the molecule shown: O=C(O)[C@@H]1Cc2c(ccc(Cl)c2OCc2ccccc2)CN1C(=O)[C@@H](OC1CCCC1)c1ccccc1 [Compound 107]
0.48

Specify reported Papp A→B at 120 min for the molecule shown: COc1ccc2c(c1OCc1ccccc1)C[C@@H](C(=O)O)N(C(=O)[C@@H](OC1(C)CCCC1)c1ccccc1)C2 [Compound 57]
0.67

====

assay: Two-way permeability study in Caco-2 cells; type: in vitro ADME; conditions: human, pH 7.4, B-A direction, 120 minutes
recorded_endpoint: Papp B→A at 120 min (×10⁻⁶ cm/s)
Answer with a number only, understood to be in ×10⁻⁶ cm/s.

Specify reported Papp B→A at 120 min for the compound shown: COc1ccc2c(c1OCc1ccccc1)C[C@@H](C(=O)O)N(C(=O)[C@@H](OC1(C)CCCC1)c1ccccc1)C2
17.7

Specify reported Papp B→A at 120 min for the compound shown: O=C(O)[C@@H]1Cc2c(ccc(Cl)c2OCc2ccccc2)CN1C(=O)[C@@H](OC1CCCC1)c1ccccc1
6.24

Specify reported Papp B→A at 120 min for the compound shown: COc1ccc2c(c1OCc1ccccc1)C[C@@H](C(=O)O)N(C(=O)[C@@H](OC1CCCC1)c1ccccc1)C2
8.68

Specify reported Papp B→A at 120 min for the compound shown: COc1ccc2c(c1OCc1ccccc1)C[C@@H](C(=O)O)N(C(=O)C(c1ccccc1)c1ccccc1)C2 [EMA-401, reference compound]
6.4
